Test system: T-47D breast
Assay: NCI-60 one-dose screen, 48 h (100 = growth as untreated, 0 = no growth, -100 = all killed)
Details: 10 µM
Compounds without any hit were thinned out: in the full panel of roughly 83,000, 20% have a hit. Where a SMILES comes first, the peptide text is derived from it. Bridges are numbered along the chain shown (N, C = ends). [ ]: non-standard residue; d: D form. The star is where a group is joined. ξ: configuration not given here. ξNMePhe(4-NMe2) = CNC(Cc1ccc(N(C)C)cc1)C(=O)O; Picolinoyl(3-OH) = O=C(c1ncccc1O)*; ξPip(4-oxo) = O=C1CCNC(C(=O)O)C1; Phg = N[CH](C(=O)O)c1ccccc1; Abu = CC[CH](N)C(=O)O
Listed below: growth values for each entry.
Form entry: value (%) — number only.

Example entries begin here.
compound	target_under_test	uom	value_measured
CC(=O)c1ccc(C(C)(C)C)cc1	T-47D breast	%	98.2
CC(=O)OCCC(C)CCC=C(C)C (stereo not given)	T-47D breast	%	98.8
Cc1cc(O)ccc1O	T-47D breast	%	101
CC(=O)c1ccc2c(ccc3ccccc32)c1	T-47D breast	%	98.9

Prompt: # growth lookup, item Cc1ccc(C(=O)c2ccccc2)c(C)c1
Completion: 96.4

Prompt: What measured growth goes with CCC1NC(=O)C(NC(=O)c2ncccc2O)C(C)OC(=O)C(c2ccccc2)NC(=O)C2CC(=O)CCN2C(=O)C(Cc2ccc(N(C)C)cc2)N(C)C(=O)C2CCCN2C1=O (stereo not given) (tested in a mixture with another compound) ({Picolinoyl(3-OH)}-T[Abu]P[ξNMePhe(4-NMe2)][ξPip(4-oxo)][Phg]; ester 1-C; configuration not given here) ?
Completion: 64.8

====

Test system: MALME-3M melanoma
Experiment: NCI-60 one-dose screen, 48 h (100 = growth as untreated, 0 = no growth, -100 = all killed)
Details: 10 µM
The panel holds about 83,000 compounds, 20% with a hit somewhere; the sample as a whole holds those more often.
assay_metric: growth (%)
The answer is to be given in %; state only the numeric part.

Recorded results for 8 compounds are shown here.
compound	assay_metric	value_measured
C#Cc1cccc(NC(=O)c2ccc(Cl)cc2Cl)c1	growth	108
C1CNC(C2=NCCN2)=N1	growth	101
COc1ccc2c(NCCCCCCCCNc3c4ccccc4nc4cc(OC)ccc34)c3ccccc3nc2c1	growth	-98.1
O=C(O)c1ccnc(Br)c1	growth	107
Nc1ccc(N)c([N+](=O)[O-])c1	growth	97.9
COS(=O)(=O)c1ccc(Br)cc1	growth	119
CCOc1ccc2[nH]c(=S)sc2c1	growth	97.8
O=[N+]([O-])c1ccc(Sc2ccncn2)c([N+](=O)[O-])c1	growth	86.6

Prompt: Bench note: what growth did CC(=O)Cc1ccc(-c2ccccc2)cc1 show?
Completion: 77.1

Prompt: // returns reported growth for input Cc1cc(C(O)(c2ccc(Nc3ccccc3)cc2)c2ccc(Nc3ccc(S(=O)(=O)O)cc3)cc2)ccc1N (centres undefined)
Completion: -47.6

====

The entries below are paired with their reported growth.
Test system: IGROV1 ovarian
Experiment: NCI-60 one-dose screen, 48 h (100 = growth as untreated, 0 = no growth, -100 = all killed)
Settings: 10 µM
The panel holds about 83,000 compounds, 20% with a hit somewhere; the sample as a whole holds those more often.
Lab book: enter the figure in %, no units written.

// worked examples, growth included
compound	target_under_test	value_measured
NCCC(=O)c1ccc(Cl)cc1	IGROV1 ovarian	117
CCOC(=O)/C(=C/c1ccc(OC)cc1)N(CC)CC	IGROV1 ovarian	106
Cc1ccc(Cl)cc1NC(=O)N(C)CCO	IGROV1 ovarian	93
Cc1ncc(C#N)c(N)n1	IGROV1 ovarian	106
O=C(O)CCCc1ccccc1	IGROV1 ovarian	121

Prompt: Given O=C(Cc1ccccc1)Cc1ccccc1 , state its recorded growth.
Completion: 104

Prompt: Form field: reported growth of Cc1ccc(/C(C#N)=C/c2ccc3c(c2)OCO3)cc1
Completion: 72.4

Prompt: Requested read-out: growth. Entry: CC(O)COc1ccc(-c2ccccc2)cc1 (centres undefined)
Completion: 115

Prompt: Requested read-out: growth. Entry: CCOc1ccc(/C=N/N=C(N)N)cc1OCC
Completion: 95.9

Prompt: Name the reported growth value associated with the compound CN(C)c1ccc2oc(=O)c3ccccc3c2c1
Completion: 95.3

Prompt: Give its growth value. Item: CC(=O)Nc1c(C)cc(C)cc1C
Completion: 110

Prompt: Form field: reported growth of COc1ccc(C(O)c2ccccc2)cc1 (centres undefined)
Completion: 99.3

Prompt: Fill in the blank: the reported growth of CCOC(=O)Nc1cc2c(c(N)n1)N=C(c1ccccc1)CO2 is ____.
Completion: 25.2

Prompt: Fill in the blank: the reported growth of Cc1cccc(CO)c1 is ____.
Completion: 115

====

# growth listing for each entry below
Test system: SK-OV-3 ovarian
Experiment: NCI-60 one-dose screen, 48 h (100 = growth as untreated, 0 = no growth, -100 = all killed)
Conditions: 10 µM
Protocol: Growth inhibition of the SK-OV-3 human tumor cell line is measured as a screen for anti-cancer activity. Cells are grown in 96 well plates and exposed to the test compound for 48 hours. Compounds are tested at a single concentration, which is 10^-5 M for most compounds. The reported endpoint is percent growth (GI% or GIPRCNT), where numbers from 0 - 100% represent growth inhibition, and numbers from -100% - 0 represent cell death. For example, a value of 40 represents 60% growth inhibition. […]
About 83,000 compounds went through this panel and 20% of them were active in at least one assay; those are over-represented in the sample as a whole.
Kindly provide the numeric value in % only, without the unit symbol.

Below are worked cases with known answers.
O=[N+]([O-])c1ccc(-c2noc(-c3cccs3)n2)cc1 95.2
CCOC(=O)CCCC(=O)OCC 96.7
C/C(=C\c1cc(Cl)ccc1OCC(=O)O)[N+](=O)[O-] 97.7
COc1cc(CN)ccc1O 93.8
Cc1c(C(=O)O)c(=O)n(-c2ccccc2)n1C 107

Prompt: For the compound shown here, O=[N+]([O-])c1ccc(CO)cc1 , give the reported growth.
Completion: 93.7

Prompt: Query (compound): O=C(c1ccccc1)C1CCC1 ; field requested: growth
Completion: 100

Prompt: Which growth is reported for this compound? Cc1cc(C)c(N)c(S(=O)(=O)O)c1
Completion: 94.6

Prompt: Value lookup for growth; key = CSC(=N\N=C\c1ccc(N(C)C)cc1)/N=C/N(C)C
Completion: 106

Prompt: Name the recorded growth for COc1cc(-c2ccc(NC(=O)NC3CC3)c(OC)c2)ccc1NC(=O)NC1CC1 .
Completion: 75.5

Prompt: Using the record for CC1(C)N=C(N)N=C(N)N1c1ccc(Cl)cc1 , report its growth.
Completion: 61

Prompt: Report growth for CC(=O)NC(N)=S please.
Completion: 118

Prompt: So what does the record say about growth for CC1=C(/C=C/C(C)=C/C=C/C(C)=C/CO)C(C)(C)CCC1 ?
Completion: 114

====

Test system: MDA-MB-231 breast
Assay: NCI-60 one-dose screen, 48 h (100 = growth as untreated, 0 = no growth, -100 = all killed)
Details: 10 µM
Compounds without any hit were thinned out: in the full panel of roughly 83,000, 20% have a hit. Activity calls are given as the source filed them. The calls were made as follows: active = growth percent below 10; inactive = the rest.
assay_metric: growth

Some compounds with recorded growth:
compound	value_measured
COC(=O)Nc1cccc(Cl)c1OC	124% (inactive)
CCOC(=O)CNN	107% (inactive)
CCOC(=O)/C(=C/c1ccc(OC)cc1)N(CC)CC	107% (inactive)
c1ccc(Cc2ccccc2)cc1	105% (inactive)
OCC1OC(OC2C(O)C(CO)OC2(CO)OC2OC(CO)C(O)C(O)C2O)C(O)C(O)C1O (stereo not given)	99.6% (inactive)
CSC(=N\N=C\c1ccc(N(C)C)cc1)/N=C/N(C)C	106% (inactive)
COC(=O)c1cccnc1	100% (inactive)
O=C(O)c1cccc([N+](=O)[O-])c1O	103% (inactive)

Prompt: # query: growth of entry COc1ccc(C(C)C=O)cc1 (stereo not given)
Completion: 110% (inactive)

Prompt: Please give the measured growth for this compound: Nc1ccc(N=Nc2ccc(O)cc2)c(N)n1
Completion: 73.7% (inactive)

Prompt: Return reported growth; argument: CC1CC(O)CC(C)(C)C1 (stereo not given)
Completion: 105% (inactive)

Prompt: Which growth is reported for this compound? Cc1cc(=O)cc(C)n1-c1ccccc1
Completion: 106% (inactive)

Prompt: Fill in: growth of CCNCCCCNCCCCNCCCCNCCCCNCC is ___
Completion: 109% (inactive)

====

System: HS 578T breast
Assay: NCI-60 one-dose screen, 48 h
Settings: 10 µM
About 83,000 compounds went through this panel and 20% of them were active in at least one assay; those are over-represented in the sample as a whole. Activity calls are given as the source filed them. Rule for the calls: active = growth percent below 10; inactive = the rest.
Pick one: active, inactive

Sample answers from the record:
compound	assigned_category
CC1(O)OC(COc2ccc(Cl)cc2)COC1O (configuration not stated)	inactive
Cc1c(O)cccc1O	inactive
CCS(=O)(=O)c1cc(=O)[nH]c(=O)[nH]1	inactive
C=CCNc1nnc(C)s1	inactive
COc1ncnc2c1cnn2C	inactive

Prompt: Please let me know the test result on file for NC(N)=Nc1cc2ccccc2c2ccccc12 .
Completion: inactive

Prompt: Which outcome was assigned to O=C(Nc1cccc(NC(=O)Nc2cc(C(F)(F)F)ccc2Cl)c1)Nc1cc(C(F)(F)F)ccc1Cl in this test?
Completion: inactive

The origin of these recorded values is PubChem BioAssay (NCI).
